Substrate: alpha-Naphthyl caprylate
Conditions: pH 5; 37 °C
REPORTED ENDPOINT: Km (µM)
# value in µM; strip the unit string

The reported value for unnamed (protein) MKQFSAKHALAVVVTAGHALAASTQGISEDLYTRLVEMATISQAAYADLCNIPSTIIKGEKIYNSQTDINGWILRDDSSKEIITVFRGTGSDTNLQLDTNFTLTPFDTLPQCNGCEVHGGYYIGWVSVQDQVESLVKQQVSQYPDYALTVTGHSLGASLAALTAAQLSATYDNIRLYTFGEPRSGNQAFASYMNDAFQASSPDTTQYFRVTHANDGIPNLPPVEQGYAHGGVEYWSVDPYSAQNTFVCTGDEVQCCEAQGGQGVNNAHTTYFGMTSGACTW in terms of Km is 20

Source listed as the PETadex activity labels (doi:10.1016/j.bbagen.2004.12.016).
